Target: human ether-à-go-go-related gene (hERG) potassium channel (human, UniProt Q12809);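 also: peak tail current of the secondary pulse compared with the same well before compound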
Sequence (Q12809 whole entry, looked up): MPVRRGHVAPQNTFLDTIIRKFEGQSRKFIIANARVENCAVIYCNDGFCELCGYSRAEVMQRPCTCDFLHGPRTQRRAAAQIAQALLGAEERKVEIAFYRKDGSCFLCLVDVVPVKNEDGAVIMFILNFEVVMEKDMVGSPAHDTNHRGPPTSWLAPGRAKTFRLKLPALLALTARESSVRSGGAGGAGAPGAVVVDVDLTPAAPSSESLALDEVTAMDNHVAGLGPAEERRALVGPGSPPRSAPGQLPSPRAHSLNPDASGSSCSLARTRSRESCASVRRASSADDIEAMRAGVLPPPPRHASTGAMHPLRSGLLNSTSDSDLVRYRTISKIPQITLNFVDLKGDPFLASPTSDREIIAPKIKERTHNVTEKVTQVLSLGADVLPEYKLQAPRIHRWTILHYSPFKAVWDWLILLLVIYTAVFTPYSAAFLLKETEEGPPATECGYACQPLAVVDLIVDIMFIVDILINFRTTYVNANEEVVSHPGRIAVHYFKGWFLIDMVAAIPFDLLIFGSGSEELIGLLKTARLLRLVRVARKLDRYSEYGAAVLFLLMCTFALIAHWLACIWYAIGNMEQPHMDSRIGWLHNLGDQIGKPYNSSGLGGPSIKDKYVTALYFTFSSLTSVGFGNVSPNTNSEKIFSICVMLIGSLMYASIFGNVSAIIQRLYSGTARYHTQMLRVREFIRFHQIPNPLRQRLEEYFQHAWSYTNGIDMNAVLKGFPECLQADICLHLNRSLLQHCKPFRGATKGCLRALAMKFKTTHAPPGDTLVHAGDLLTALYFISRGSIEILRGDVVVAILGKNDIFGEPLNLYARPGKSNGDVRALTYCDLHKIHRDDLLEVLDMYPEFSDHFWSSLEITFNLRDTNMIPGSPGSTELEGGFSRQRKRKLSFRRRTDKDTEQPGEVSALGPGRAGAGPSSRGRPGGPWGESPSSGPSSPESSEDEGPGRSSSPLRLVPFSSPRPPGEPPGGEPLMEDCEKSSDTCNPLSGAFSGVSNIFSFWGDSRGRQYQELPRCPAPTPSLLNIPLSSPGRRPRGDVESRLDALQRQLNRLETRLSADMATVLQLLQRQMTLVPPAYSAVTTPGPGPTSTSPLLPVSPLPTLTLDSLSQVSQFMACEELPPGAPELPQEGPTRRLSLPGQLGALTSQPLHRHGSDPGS
Test: primary screen, population patch clamp on CHO cells stably expressing hERG; higher = less effect of the substance
In all, about 310,000 compounds went through this assay and about 14,000 (4.5%) showed an effect of 50% or more. Effects have a minus sign here. Many of the other results were omitted from the sample, so strong results are more common in it than they were.
Would you mind labelling by hERG current change (%, negative = inhibition) at 10uM? At or over -50% is true, under is false.

A selection of reference data follows.
| COMPOUND | CLASS_NAME |
| --- | --- |
| CCOC(=O)C1(Cc2ccc(OC)cc2)CCN(C(=O)c2sc(C)nc2C)CC1 | true |
| C=CCN1CC(C(=O)N2CCC(Cc3ccc(Cl)cc3)(C(=O)OCC)CC2)CC1=O (stereo not drawn) | false |
| CCOC(=O)C1(Cc2ccc(Cl)cc2)CCN(C(=O)c2cscn2)CC1 | true |
| CCOC(=O)C1(Cc2ccc(Cl)cc2)CCN(C(=O)C2=NNC(=O)CC2)CC1 | false |
| O=C1CCC(C(=O)N2CCC(CO)(Cc3ccc(Cl)cc3)CC2)=NN1 | true |

Query block: Has "CCOC(=O)C1(Cc2ccc(Cl)cc2)CCN(C(=O)c2cc(C)nc(C)n2)CC1" a recorded hERG current change (%, negative = inhibition) at 10uM greater than or equal to -50%?
Result block: true

Query block: Has CCOC(=O)N1CCN(C(=O)C2CCC(=O)N(Cc3ccc(Cl)cc3)C2)CC1 (stereo not drawn) a recorded hERG current change (%, negative = inhibition) at 10uM greater than or equal to -50%?
Result block: true

Query block: Has "CCOC(=O)C1(Cc2ccc(Cl)cc2)CCN(C(=O)c2sc(C)nc2C)CC1" a recorded hERG current change (%, negative = inhibition) at 10uM greater than or equal to -50%?
Result block: false

###

Molecular target: human ether-à-go-go-related gene (hERG) potassium channel (human, UniProt Q12809);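 also: peak tail current of the secondary pulse compared with the same well before compound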
Test: primary screen, population patch clamp on CHO cells stably expressing hERG; higher = less effect of the substance
Hit rate of the full screen: of about 310,000 compounds, about 14,000 (4.5%) showed an effect of 50% or more. The effect is printed as a negative number. For the sample, strong results were picked, then their nearest neighbours and some compounds at random.
Hi there, I'd appreciate the recorded hERG current change (%, negative = inhibition) at 10uM for every entry that follows.
One number for each entry, in %.

For each of the compounds below, state hERG current change (%, negative = inhibition) at 10uM.
1. CCOC(=O)C1CCN(C(=O)C2CCCN(S(=O)(=O)c3ccc(OC)c(Cl)c3)C2)CC1 (centres unmarked)
2. COc1ccc(CCNC(=O)C2CCC(=O)N(C3CCCCCC3)C2)cc1 (centres unmarked)
3. COc1cccc(CN2CC(C(=O)N3CCCC3)CCC2=O)c1 (centres unmarked)
4. O=C(C1CCCN(S(=O)(=O)c2ccc(Br)s2)C1)N1CCCCCC1 (centres unmarked)
5. CCOC(=O)C1CCN(C(=O)C2CCCN(S(=O)(=O)c3ccc(OCC)c(Cl)c3)C2)CC1 (centres unmarked)
6. COc1ccccc1C(=O)Oc1cc(N)n(S(=O)(=O)c2ccc(C)cc2)n1
7. COc1ccc2ccccc2c1/C=N/N1C(=O)CSC1=S

Result block:
[-67.2, 8.9, 19.4, -11.8, -40.8, -7.77, 16.7]

For each of the compounds below, state hERG current change (%, negative = inhibition) at 10uM.
1. O=C(COC(=O)/C=C/c1cccc(F)c1)NC1CCCC1
2. Cc1occc1-c1nnc(SCC(=O)Nc2ccccc2)n1CCc1ccccc1

Result block:
1. 4.41
2. -67

For each of the compounds below, state hERG current change (%, negative = inhibition) at 10uM.
1. O=C(COc1ccc([N+](=O)[O-])cc1)N(Cc1ccccc1)Cc1ccccc1
2. CC(=O)N(C)c1ccc(NC(=S)Nc2cccc3ccccc23)cc1

Result block:
-41.5
3.38

For each of the compounds below, state hERG current change (%, negative = inhibition) at 10uM.
1. Cc1occc1-c1nnc(SCC(=O)Nc2ccccc2)n1C
2. CCCn1c(SCC(=O)Nc2ccccc2-c2ccccc2)nnc1-c1ccoc1C

Result block:
1. 9.72
2. -26
